Test system: HEK-293T
Assay: Multiplex assay against HEK293T
Format: toxicity, cell-based
Settings: human, 24 h, 1 µM, compound concentration 1 uM, replicate 2
observable: Population Apoptotic (%)
Number in %, nothing else.

Worked set:
[[record]]
smiles_string = "CC(C)COc1ccc(CNC(=O)N(Cc2ccc(F)cc2)C2CCN(C)CC2)cc1"
study_target = "HEK-293T"
value_unit = "%"
result_number = 48

[[record]]
smiles_string = "CCCCC1=NC2(CCCC2)C(=O)N1Cc1ccc(-c2ccccc2-c2nnn[nH]2)cc1"
study_target = "HEK-293T"
value_unit = "%"
result_number = 34

[[record]]
smiles_string = "Cc1cccc(NC(=O)CN2CCC(c3ccccn3)CC2)c1.Cl.Cl"
study_target = "HEK-293T"
value_unit = "%"
result_number = 45

[[record]]
smiles_string = "N#Cc1cc(F)cc(-c2nc(-c3ccc(F)cn3)no2)c1"
study_target = "HEK-293T"
value_unit = "%"
result_number = 48

[[record]]
smiles_string = "O=C1[C@H](Cc2ccc(O)cc2)N2C(=O)CCN(C(=O)NCc3ccccc3)[C@H]2CN1Cc1cccc2ccccc12"
study_target = "HEK-293T"
value_unit = "%"
result_number = 55


stdin: Lab request: please report Population Apoptotic (%) under test system HEK-293T for CCCOc1ccc2[nH]cc(C3=CCNCC3)c2n1.Cl
stdout: 35

stdin: // same read-out, input: C[C@H](N)COC(=O)[C@@H](CCCCN)NC(=O)Cc1c(-c2ccc3ccccc3c2)[nH]c2c1ccc1ccccc12
stdout: 54

stdin: // same read-out, input: CC(C)(C)c1cc(NC(=O)Nc2ccc(-c3cn4c(n3)sc3cc(OCCN5CCOCC5)ccc34)cc2)no1
stdout: 38

stdin: // same read-out, input: Cc1c(CC(=O)O)c2cccnc2n1Cc1ccc(S(C)(=O)=O)cc1C(F)(F)F
stdout: 43

----------
Recorded Population Mitotic Cells (%) for the following molecules
System: U2OS
Experiment: Multiplex assay against U2OS
Format: toxicity, cell-based
Settings: human, 24 h, 1 µM, compound concentration 1 uM, replicate 1
Number in %, nothing else.

Worked set:
[[record]]
molecule = "Cc1cnc(-c2cc(N3CCN(C(=O)CCS(C)(=O)=O)CC3)ncc2Cl)c(C)c1"
result_number = 20

[[record]]
molecule = "CC[C@@H](C)Nc1nc(C)nc2c(-c3ccc(OC)nc3C)c(C)nn12"
result_number = 20

[[record]]
molecule = "O=C(NCCN1CCC(n2c(=O)[nH]c3cc(Cl)ccc32)CC1)c1ccc(F)cc1 [HALOPEMIDE]"
result_number = 8

[[record]]
molecule = "COC[C@@H](c1ccc(C(F)(F)F)cc1)N1CCN(C2(C)CCN(C(=O)c3c(C)ncnc3C)CC2)C[C@@H]1C.O=C(O)/C=C\\C(=O)O [VICRIVIROC MALEATE]"
result_number = 22

[[record]]
molecule = "Cc1onc(-c2ccccc2Cl)c1C(=O)N(C)c1ccc(Cl)cc1"
result_number = 0

[[record]]
molecule = "Cc1c(CC(=O)O)c2cccnc2n1Cc1ccc(S(C)(=O)=O)cc1C(F)(F)F"
result_number = 20

[[record]]
molecule = "CC(C)COc1ccc(CNC(=O)N(Cc2ccc(F)cc2)C2CCN(C)CC2)cc1"
result_number = 7

[[record]]
molecule = "CN1CCN(c2cc(-c3ccccc3)nc(N)n2)CC1"
result_number = 13


Then this molecule:
stdin: Any idea what its Population Mitotic Cells (%) is? The molecule is CC(/C=C1\SC(=S)N(CCCC(=O)Nc2ccc(C(=O)O)c(O)c2)C1=O)=C\c1ccccc1
stdout: 16
